Where do these numbers come from? They come from patent US20250250357A1.

OD450 values for the binders below.
# Target under test: T1, human MSLN-FL-his protein (human, UniProt Q13421 296-580)
# T1 construct: Made in HEK293E cells, purified on nickel column; also called hMSLN-FL-his; human MSLN full-length protein; not shown: His tag
# T1 sequence (Q13421 other isoform, or with tags, fused parts or gaps): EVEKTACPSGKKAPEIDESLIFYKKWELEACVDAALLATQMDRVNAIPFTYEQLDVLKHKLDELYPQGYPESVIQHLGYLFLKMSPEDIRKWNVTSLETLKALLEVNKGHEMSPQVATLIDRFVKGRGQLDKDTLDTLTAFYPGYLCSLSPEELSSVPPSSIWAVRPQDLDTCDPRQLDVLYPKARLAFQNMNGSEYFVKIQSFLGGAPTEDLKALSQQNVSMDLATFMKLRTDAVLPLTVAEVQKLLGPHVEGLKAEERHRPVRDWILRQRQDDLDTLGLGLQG
# Procedure details: ELISA, coated antigen, antibody 0.0002 nM
# answer = number (no unit)

In the examples that follow, each entry is paired with its recorded OD450.
The reported OD450 of the binder S009-F7.23.19 chimeric antibody (antibody, human IgG1, kappa, V domains shown, Human-murine chimeric antibody, human IgG1/kappa constant regions) VH: EVKLVESGGGLVQPGGSLSLSCAASGFTFTDYYMSWVRQPPGKALEWLGFIRSKANAYTTEYSASVKGRFTISRDNSQSILYLQMNDLRAEDSATYYCARYYYYGSGYVWYFDVWGTGTTVTVSS VL: DIVMTQSQKFMSTSVGDRVSVTCKASQSVGTNVAWYQQKPGQFPKALIYSASYRYSGVPDRFTGSGSGTDFTLTIINVQSEDLAEYFCQQYNSYPLTFGAGTKLELKR was 0.11

The reported OD450 of the binder S009-F7.11.11 chimeric antibody (antibody, human IgG1, kappa, V domains shown, Human-murine chimeric antibody, human IgG1/kappa constant regions) VH: EVQLQQSGPELVKPGASVKIPCKASGYTITDYNMDWVKQSRGKSLEWIGDVFPYNGDSIYNQKFEGRATLTVDKYSSTAYMELRGLTSEDTAVYFCARRKTGTGYFDVWGTGTTVTVSS VL: QLVLTQSPAIMSASPGEKVTLTCSASSSVSSTYLSWYLQKPGSSPKLWIYSTSNLASGVPARFSGSGSGTSYSLTISSMEAEDAASYFCHQWSSYPYTFGGGTKLEIKR was 0.08

Continue with the binder presented below.
The reported OD450 of the binder S009-F7.53.2 chimeric antibody (antibody, human IgG1, kappa, V domains shown, Human-murine chimeric antibody, human IgG1/kappa constant regions) VH: EVQLQQSGPELVKPGASVKIPCKTSGYTFTDYNMDWVKQSHGKSLEWIGDINPNTDGAIYNQKFQNKATLTVDKSSSTAYMELRSLTSEDTAVYYCTRRKLGRKFFDYWGQGTTLTVSS VL: QIVLTQSPAIMSASPGEQVTMTCSASSSVGYMNWYQQKPGSSPRLLIYDTSNLASGVPVHFSGSGSGTSYSLTISRMEAAFAATYYCQQWYVYPYTFGGGTKLEIKR was 0.06
